I'd appreciate it if you could supply composite z-score values for the items below.
Experiment: probe aInhba binding on compound microarray – biochemical, small-molecule microarray, 635/667 nm fluorescence, primary screen (AID 1148);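 also: score merges 667nm spot fluorescence with signal-to-noise for antibody binding to printed compounds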
Details: higher = more signal
Give your answer as a number; write no unit.

Kindly note the recorded composite z-score for CC1CC/C=C\[C@H]2OC34C=CCN(Cn5nnc6ccccc65)C(=O)[C@H]3N(CCCCCCO)C(=O)[C@@H]4C2C(=O)O1 (stereo not given in full) , which is -0.12

Kindly note the recorded composite z-score for C=CCC(OC(C)=O)[C@@H]1[C@@H](N(Cc2ccc(-c3ccccc3)cc2)C(=O)c2cccc3ccccc23)c2cc(OCCCO)ccc2N1C(=O)Cc1ccc(OC)cc1 (stereo not given in full) , which is -0.0346

Kindly note the recorded composite z-score for COCCOC(=O)N1C(=O)[C@@]2(c3cc(C#CCC(C(=O)OC)C(=O)OC)ccc31)[C@H](C(=O)Nc1nc3ccccc3s1)[C@H]1C(=O)O[C@H](c3ccccc3)[C@H](c3ccccc3)N1[C@@H]2c1ccc(O)cc1 , which is 0.326

Kindly note the recorded composite z-score for C=CC[C@@]1(C(=O)N(C)C)N=C(c2ccc(OCCCO)cc2)O[C@@H]1c1ccccc1CN=[N+]=[N-] , which is 0.143

Kindly note the recorded composite z-score for O=C1C2C=CC(C(O)c3c(F)cccc3Cl)N(Nc3ccc([N+](=O)[O-])cc3)C2C(=O)N1c1ccccc1 (stereo not given) , which is 0.142

Kindly note the recorded composite z-score for Cc1ccc(S[C@]2(C(=O)NCCCN(C)C)CC(=O)N(C3Cc4ccccc4C3)[C@@H]2c2ccc(CO)cc2I)cc1 , which is -0.182

Kindly note the recorded composite z-score for COC(=O)[C@]1(CCC(=O)OC(C)(C)C)N=C(c2ccc(OCCCO)cc2)O[C@@H]1c1ccccc1N=[N+]=[N-] , which is -0.0658

Kindly note the recorded composite z-score for [N-]=[N+]=Nc1ccccc1C[C@@]1(C(=O)NCC(O)CO)N=C(c2ccc(OCCCO)cc2)O[C@@H]1c1ccccc1 (stereo not given in full) , which is 0.0047

Kindly note the recorded composite z-score for O=C(NCC(O)CO)C1N=C(c2ccc(OCCCO)cc2)N(c2ccccc2)O1 (stereo not given) , which is -0.0468

Kindly note the recorded composite z-score for COc1cc(CO)cc(I)c1O[C@H]1C=C(C(=O)NCCO)C[C@@H]2O[C@H]12 , which is -0.0589

Kindly note the recorded composite z-score for C=CCN1C(=O)[C@@]2(O[C@@H](CCn3cc([C@H](O)c4ccccc4)nn3)[C@H]([Si](C)(C)c3ccc(OC)cc3)[C@H]2C)c2cc(N3C(=O)c4cccc5cccc3c45)ccc21 , which is -0.128

Kindly note the recorded composite z-score for N#Cc1ccc(C(O)C2C=CC3C(=O)NC(=O)C3N2Nc2ccc(Cl)cc2Cl)cc1 (stereo not given) , which is 0.104

Kindly note the recorded composite z-score for CN(C)CCCNC(=O)[C@@]1(Cc2ccccc2I)c2ccccc2C(=O)N(C2CCCCC2)[C@H]1c1ccc(CO)cc1 , which is 0.41

Kindly note the recorded composite z-score for C=CCNC(=O)[C@H]1[C@@H]2C(=O)O[C@@H](c3ccccc3)[C@@H](c3ccccc3)N2[C@@H](c2ccccc2OCCO)[C@]12C(=O)N(C(=O)OCCOC)c1ccc(C#Cc3ccc(OC)cc3)cc12 , which is -0.149

Kindly note the recorded composite z-score for COC(=O)[C@@]1(Cc2ccc(F)cc2)[C@H]2c3cc(C(=O)N4CCCC4)n(Cc4cc(F)cc5c4OCOC5)c3C[C@H]2CN1C(=O)c1ccccc1 , which is 0.328

* * *

Test: probe aLAP1 signal on lysate-treated microarray – cell lysate, small-molecule microarray, COS7 lysate, primary screen (AID 1124);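 also: lysate comes from COS7 cells expressing LAP1 and is applied at 0.3 µg/mL; score merges spot fluorescence near 667 nm with signal-to-noise over triplicate slides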
Details: probe aLAP1, fluorescence, higher = more signal
I'd appreciate it if you could supply composite z-score values for the items below.
Give your answer as a number; write no unit.

Kindly note the recorded composite z-score for CC(C)(C)N1CC=CC23O[C@@H]4/C=C\CCCOC(=O)C4[C@H]2C(=O)N(CCCO)[C@@H]3C1=O (stereo partly drawn) , which is 0.818

Kindly note the recorded composite z-score for O=C1N(Cc2ccccc2)c2ccccc2C[C@@]12COC(c1ccc(OCCCO)cc1)=N2 , which is 0.756

Kindly note the recorded composite z-score for O=C(NCCN1CCOCC1)[C@@H]1c2ccccc2C(=O)N(Cc2ccccc2C(F)(F)F)[C@H]1c1ccc(CO)cc1 , which is 2.49

Kindly note the recorded composite z-score for CC1CC/C=C\[C@H]2OC34C=CCN(C(C)(C)C)C(=O)[C@H]3N(CCCO)C(=O)[C@@H]4C2C(=O)O1 (stereo partly drawn) , which is 0.71

Kindly note the recorded composite z-score for C=C(CCCC)/C(=C/C[C@H](OC(=O)c1ccncc1)c1cccc(OCCO)c1)c1cnc2ccccc2c1 , which is 0.423

Kindly note the recorded composite z-score for O=C1[C@H]2C=C(I)[C@H](C[C@@H]2OCCCCCCO)[C@@]12CO2 , which is -0.16

Kindly note the recorded composite z-score for COC(=O)[C@@]1(Cc2ccc(OC)cc2)[C@H]2c3cc(C(=O)N(C)C)[nH]c3C[C@H]2CN1C(=O)c1ccccc1 , which is -0.106

Kindly note the recorded composite z-score for CN(C)CCCC[C@@H]1NC(=O)[C@H]2C[C@@H](C(=O)O)[C@@H](c3ccc(O)cc3)N2C1=O , which is 1.31

* * *

I'd appreciate it if you could supply composite z-score values for the items below.
Experiment: probe aNOTCH2 binding on compound microarray – biochemical, small-molecule microarray, 635/667 nm fluorescence, primary screen (AID 1121);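 also: score merges feature fluorescence read at 667 nm with its signal to noise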
Conditions: higher = more signal
Give your answer as a number; write no unit.

Kindly note the recorded composite z-score for C=CCC(OC(C)=O)[C@@H]1[C@@H](N(Cc2cccc3ccccc23)C(=O)Cc2ccc(OC)cc2)c2cc(OCCCO)ccc2N1C(=O)c1ccc2ccccc2c1 (stereo partly specified) , which is -0.143

Kindly note the recorded composite z-score for C=CCC(OC(C)=O)[C@@H]1[C@@H](N(Cc2cccc3ccccc23)C(=O)Cc2ccc(OC)cc2)c2cc(OCCCO)ccc2N1C(=O)Cc1ccc2ccccc2c1 (stereo partly specified) , which is -0.159

Kindly note the recorded composite z-score for C=CCNC(=O)[C@@H]1[C@H]2C(=O)O[C@H](c3ccccc3)[C@H](c3ccccc3)N2[C@H](c2ccc(OCCO)cc2)[C@@]12C(=O)Nc1ccc(C#CC3(O)CCCCCC3)cc12 , which is -0.11

Kindly note the recorded composite z-score for COC(=O)C(CC#Cc1ccc2c(c1)[C@]1(C(=O)N2)[C@H](c2ccccc2OCCO)N2[C@H](c3ccccc3)[C@H](c3ccccc3)OC(=O)[C@H]2[C@@H]1C(=O)N1CCc2cc(OC)c(OC)cc2C1)C(=O)OC , which is -0.14

Kindly note the recorded composite z-score for O=C(NCC(O)CO)[C@@]1(CCS(=O)(=O)c2ccccc2)N=C(c2ccc(OCCCO)cc2)O[C@H]1c1ccccc1 (stereo partly specified) , which is 0.137

Kindly note the recorded composite z-score for CCOC(=O)C1=CCC(c2cc3ccccc3[nH]2)N(CCN2CC(C(=O)OCC)=CCC2c2cc3ccccc3[nH]2)C1 (stereo unspecified) , which is -0.108

* * *

Assay: plasmodial surface anion channel blockers, osmotic lysis – cell-based, P. falciparum Indochina, OD700, 1 h, primary screen (AID 1154)
Conditions: P. falciparum Indochina infected RBC osmotic lysis, called active from +8 up or from −8 down
Active and inactive are the calls of the source.
Reply using exactly one outcome from active, inactive

What call does the record list for CC(C)=CCCC(C)=CC(O)C1C=CC2C(=O)NC(=O)C2N1Nc1ccc(Cl)cc1Cl (centres undefined) ? inactive

What call does the record list for COc1ccc(C(=O)Nc2cccc(CN3C(=O)[C@]4(O[C@H](CC(=O)N5Cc6ccccc6C[C@H]5CO)[C@@H]([Si](C)(C)c5ccc(OC)cc5)[C@@H]4C)c4ccccc43)c2)cc1 ? inactive

What call does the record list for CCCCC(O)C1C=CC2C(=O)N(c3ccccc3)C(=O)C2N1Nc1ccccc1 (centres undefined) ? inactive

What call does the record list for COC(=O)c1cccc([C@H]2OC(=CC(=O)OC(C)C)C[C@@H](c3cccc(C(=O)OC)c3)O2)c1 ? active

What call does the record list for COCCOC(=O)N1C(=O)[C@@]2(c3ccccc31)[C@H](c1ccc(O)cc1)N1[C@H](c3ccccc3)[C@H](c3ccccc3)OC(=O)[C@H]1[C@@H]2C(=O)N1CCCCCCC1 ? inactive

What call does the record list for COc1ccc([Si](C)(C)[C@H]2[C@H](CC(=O)N3Cc4ccccc4C[C@H]3CO)O[C@@]3(C(=O)N(C)c4c(Br)cc(C)cc43)[C@@H]2C)cc1 ? active

What call does the record list for O=C(NCC(O)CO)C1N=C(c2ccc(OCCCO)cc2)N(c2ccccc2)O1 (centres undefined) ? active

What call does the record list for Cc1ccc(S[C@]2(C(=O)NC3CC3)CC(=O)N(C(C)C)[C@@H]2c2ccc(CO)cc2I)cc1 ? inactive

What call does the record list for COC(=O)[C@]1(Cc2ccccc2)N=C(c2ccc(OCCCO)cc2)O[C@@H]1c1ccccc1CN=[N+]=[N-] ? active

What call does the record list for COC(=O)[C@@]1(Cc2ccc(OC)cc2)[C@H]2c3cc(C(=O)N(C)C)[nH]c3C[C@H]2CN1C(=O)c1ccccc1 ? inactive

What call does the record list for N#Cc1ccc(-c2cccc(=O)o2)cc1 ? inactive

What call does the record list for COC(=O)C(CC#Cc1ccc2c(c1)[C@]1(C(=O)N2)[C@H](C(=O)N2CCc3cc(OC)c(OC)cc3C2)[C@H]2C(=O)O[C@H](c3ccccc3)[C@H](c3ccccc3)N2[C@@H]1c1ccccc1OCCO)C(=O)OC ? inactive

What call does the record list for COC(=O)[C@@]1(Cc2ccc(OC)cc2)[C@H]2c3cc(C(=O)N4CCCC4)n(Cc4ccc(C(F)(F)F)nc4)c3C[C@H]2CN1C(=O)c1ccccc1 ? inactive

What call does the record list for COC(=O)[C@@]1(Cc2ccc(OC)cc2)[C@H]2c3cc(C(=O)N4CCCC4)n(CCn4cc([N+](=O)[O-])nc4C)c3C[C@H]2CN1C(=O)c1ccccc1 ? inactive
